System: Klebsiella pneumoniae PCI602
Quick reference for MIC among some compounds
Express your answer in µg/mL, writing the number without its unit.

Lookup: Hello, please tell me recorded MIC for this one: CO/N=C(\C(=O)NC1C(=O)N2C(C(=O)O)=C(SCC3COCO3)CS[C@H]12)c1csc(N)n1 (some centres unmarked) [Compound No. 29]
Found: 0.2

Lookup: For CO/N=C(\C(=O)NC1C(=O)N2C(C(=O)O)=C(SCC3COC(C)(C)O3)CS[C@H]12)c1csc(N)n1 (some centres unmarked) [Compound No. 5] , write its MIC.
Found: 1.56

Lookup: Output measured MIC for this item: Nc1nc(/C(=N/O)C(=O)NC2C(=O)N3C(C(=O)O)=C(SCC4COCO4)CSC23)cs1 (centres unmarked) [Compound No. 35]
Found: 0.39

***
Lookup: Return value of MIC for input CO/N=C(\C(=O)NC1C(=O)N2C(C(=O)O)=C(SCC3CCCO3)CS[C@H]12)c1csc(N)n1 (some centres unmarked) [Compound No. 1] , no commentary.
Found: 0.78

Lookup: Input CO/N=C(\C(=O)NC1C(=O)N2C(C(=O)O)=C(SCC3COCOC3)CS[C@H]12)c1csc(N)n1 (some centres unmarked) [Compound No. 33] , output reported MIC.
Found: 0.39

Lookup: Look up and state reported MIC for Nc1nc(/C(=N/O)C(=O)NC2C(=O)N3C(C(=O)O)=C(SCC4CCOCC4)CS[C@H]23)cs1 (some centres unmarked) [Compound No. 37]
Found: 3.13

Lookup: Specify reported MIC for the compound shown: Nc1nc(/C(=N/O)C(=O)NC2C(=O)N3C(C(=O)O)=C(SCC4CCCCO4)CS[C@H]23)cs1 (some centres unmarked) [Compound No. 25]
Found: 12.5

Lookup: Quick one: give measured MIC for CO/N=C(\C(=O)NC1C(=O)N2C(C(=O)O)=C(SCC3CCOCC3)CS[C@H]12)c1csc(N)n1 (some centres unmarked) [Compound No. 31]
Found: 1.56

Lookup: Annotate the compound CO/N=C(\C(=O)NC1C(=O)N2C(C(=O)O)=C(SC3CCOCC3)CS[C@H]12)c1csc(N)n1 (some centres unmarked) [Compound No. 7] with its measured MIC.
Found: 0.39

Lookup: Find the measured MIC of Nc1nc(/C(=N/O)C(=O)NC2C(=O)N3C(C(=O)O)=C(SCC4CCCO4)CS[C@H]23)cs1 (some centres unmarked) [Compound No. 11] and report it.
Found: 0.78

Lookup: Could you please provide reported MIC for CO/N=C(\C(=O)NC1C(=O)N2C(C(=O)O)=C(SCC3CCCCO3)CS[C@H]12)c1csc(N)n1 (some centres unmarked) [Compound No. 23] ? Thanks!
Found: 3.13

Lookup: Read off the recorded MIC for Nc1nc(/C(=N/O)C(=O)NC2C(=O)N3C(C(=O)O)=C(SC4CCOC4)CS[C@H]23)cs1 (some centres unmarked) [Compound No. 13]
Found: 0.2

Lookup: State its MIC for this compound: CO/N=C(\C(=O)NC1C(=O)N2C(C(=O)O)=C(SC3CCOC3)CS[C@H]12)c1csc(N)n1 (some centres unmarked) [Compound No. 3]
Found: 0.2

From: patent US5332731A
